target: Bcl-2-like protein 10 (Homo sapiens) (UniProt Q9HD36); assay: TR3 peptide-Bcl-B binding displacers, biochemical primary FP assay, phenotype converters (AID 1240); settings: GST-Bcl-B / FITC-TR3 peptide fluorescence polarization; stronger effect = higher value; compound at 3.75 mg/L;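 also: 0% = Bcl-B with tracer peptide and DMSO and 100% = tracer peptide lacking Bcl-B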
Sequence (Q9HD36 whole entry, looked up): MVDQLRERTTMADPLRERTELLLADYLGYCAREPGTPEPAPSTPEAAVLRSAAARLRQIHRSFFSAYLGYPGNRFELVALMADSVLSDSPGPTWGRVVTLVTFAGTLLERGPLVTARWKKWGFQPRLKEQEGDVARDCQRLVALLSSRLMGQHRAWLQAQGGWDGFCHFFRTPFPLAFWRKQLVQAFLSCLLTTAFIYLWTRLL
In all, about 50,000 compounds went through this assay and about 800 (1.6%) showed an effect of 50% or more. Many of the other results were omitted from the sample, so strong results are more common in it than they were.
readout type: displacement (%)
Write the number in % without appending the unit.

molecule: CCOC(=O)c1c(-c2ccccc2)oc2ccc(OC(=O)c3ccco3)cc12
readout type: displacement
unit: %
number: 99.8

molecule: COc1ccccc1OCC(=O)Nc1ccc2c(c1)OCCO2
readout type: displacement
unit: %
number: 2.2

molecule: CS(=O)(=O)N(CC(=O)O)c1ccc(F)cc1
readout type: displacement
unit: %
number: 6.7

molecule: Fc1cccc(-c2nnc3ccc(C(F)(F)F)cn23)c1
readout type: displacement
unit: %
number: -17

molecule: O=C1NC(=O)N(c2ccccc2)C(=O)/C1=C\c1ccc(-c2ccc([N+](=O)[O-])cc2Br)o1
readout type: displacement
unit: %
number: -14.8

q: Identify measured displacement associated with `COc1ccccc1CC(=O)NCc1ccco1`
a: 10.3

q: Note displacement for the molecule shown: `O=[N+]([O-])c1ccc(N2CCN(S(=O)(=O)c3ccccc3)CC2)cc1NCCc1ccccc1`
a: 7.8

q: Report displacement for `CCOC(=O)c1c(-c2ccccc2)oc2cc(Br)c(OC(=O)c3ccco3)cc12`
a: 8.8

q: Recall and state the measured displacement for `CCOc1ccc(N2C(=O)NC(=O)/C(=C\c3ccc(-c4ccc([N+](=O)[O-])cc4OC)o3)C2=O)cc1` .
a: 23

q: Look up displacement of `COc1ccc(-c2csc(/C(C#N)=C/c3sccc3C)n2)cc1OC` and report it.
a: 181
